target: AChE (Homo sapiens, UniProt P22303); assay: Synergism of antipsychotics with donepezil/rivastigmine (binary mixtures), AChE; conditions: rivastigmine 25 μmol/L + antipsychotic at TPCmax; ComboSyn;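 further: antipsychotic concentration kept fixed across all measurements, selected from estimated therapeutic plasma levels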
Sequence (P22303 32-617 isoform P22303-2 limits assumed): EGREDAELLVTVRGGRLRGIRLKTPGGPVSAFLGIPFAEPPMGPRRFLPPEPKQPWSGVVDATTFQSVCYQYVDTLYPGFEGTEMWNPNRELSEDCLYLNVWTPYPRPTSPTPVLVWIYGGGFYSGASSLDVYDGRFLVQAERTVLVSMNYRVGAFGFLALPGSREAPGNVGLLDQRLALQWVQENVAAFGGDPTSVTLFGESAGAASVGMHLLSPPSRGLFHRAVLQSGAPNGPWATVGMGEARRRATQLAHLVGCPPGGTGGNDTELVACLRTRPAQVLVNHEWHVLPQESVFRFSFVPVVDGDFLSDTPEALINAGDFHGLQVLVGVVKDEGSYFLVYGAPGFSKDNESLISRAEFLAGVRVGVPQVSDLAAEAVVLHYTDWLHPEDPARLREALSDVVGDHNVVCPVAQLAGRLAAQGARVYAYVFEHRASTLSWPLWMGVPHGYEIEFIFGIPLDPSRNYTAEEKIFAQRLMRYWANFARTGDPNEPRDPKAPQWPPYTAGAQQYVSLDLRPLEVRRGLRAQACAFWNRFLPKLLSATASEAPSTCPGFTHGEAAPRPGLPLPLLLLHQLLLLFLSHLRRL
Overview of reported CI (combination index), AChE across a group of compounds:
recorded metric: CI (combination index), AChE

1. O=C(CCCN1CCC(O)(c2ccc(Br)cc2)CC1)c1ccc(F)cc1 ... 0.50
2. O=c1[nH]c2ccccc2n1C1CCN(CCCC(c2ccc(F)cc2)c2ccc(F)cc2)CC1 [Pimozide, pimozide] ... 0.47
3. O=C(CCCN1CCC(O)(c2ccc(Cl)cc2)CC1)c1ccc(F)cc1 ... 0.70
4. O=C(CCCN1CCC(n2c(O)nc3ccccc32)CC1)c1ccc(F)cc1 ... 0.57
5. OC1(c2ccc(Cl)c(C(F)(F)F)c2)CCN(CCCC(c2ccc(F)cc2)c2ccc(F)cc2)CC1 ... 0.92

* * *

Overview of reported CI (combination index), BuChE across a group of compounds:
molecular target: BuChE (Homo sapiens, UniProt P06276); experiment: Synergism of antipsychotics with donepezil/rivastigmine (binary mixtures), BuChE; conditions: rivastigmine 2.5 μmol/L + antipsychotic at TPCmax; ComboSyn
Sequence (P06276 29-602): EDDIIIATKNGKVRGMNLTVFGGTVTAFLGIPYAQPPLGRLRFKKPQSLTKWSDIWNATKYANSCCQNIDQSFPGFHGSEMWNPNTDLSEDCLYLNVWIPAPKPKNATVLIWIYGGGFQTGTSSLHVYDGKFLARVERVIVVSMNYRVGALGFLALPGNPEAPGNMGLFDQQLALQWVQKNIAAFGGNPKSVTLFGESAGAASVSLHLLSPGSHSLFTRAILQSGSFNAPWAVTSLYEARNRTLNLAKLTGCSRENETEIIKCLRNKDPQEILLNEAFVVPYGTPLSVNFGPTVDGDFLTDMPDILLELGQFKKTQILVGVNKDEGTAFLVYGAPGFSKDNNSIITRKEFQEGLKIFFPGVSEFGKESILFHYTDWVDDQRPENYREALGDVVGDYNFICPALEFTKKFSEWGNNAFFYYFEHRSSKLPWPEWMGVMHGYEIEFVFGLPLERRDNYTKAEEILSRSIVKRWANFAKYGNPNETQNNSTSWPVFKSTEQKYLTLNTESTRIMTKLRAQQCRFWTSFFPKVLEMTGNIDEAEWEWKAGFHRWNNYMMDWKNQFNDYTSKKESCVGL
recorded metric: CI (combination index), BuChE

1) O=C(CCCN1CCC(O)(c2ccc(Br)cc2)CC1)c1ccc(F)cc1 ... 0.96
2) OC1(c2ccc(Cl)c(C(F)(F)F)c2)CCN(CCCC(c2ccc(F)cc2)c2ccc(F)cc2)CC1 ... 1.28
3) O=C(CCCN1CCC(n2c(O)nc3ccccc32)CC1)c1ccc(F)cc1 ... 1.08
4) O=C(CCCN1CCC(O)(c2ccc(Cl)cc2)CC1)c1ccc(F)cc1 ... 1.19

* * *

target: BuChE (Homo sapiens, UniProt P06276); assay: Synergism of antipsychotics with donepezil/rivastigmine (binary mixtures), BuChE; conditions: rivastigmine 0.5 μmol/L + antipsychotic at TPCmax; ComboSyn;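 further: combination index derived by median-effect analysis of combined drug effects on the cholinesterase, with values below 1 meaning synergism, exactly 1 additivity and above 1 antagonism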
recorded metric: CI (combination index), BuChE

1. OC1(c2ccc(Cl)c(C(F)(F)F)c2)CCN(CCCC(c2ccc(F)cc2)c2ccc(F)cc2)CC1 ... 1.01
2. O=C(CCCN1CCC(O)(c2ccc(Br)cc2)CC1)c1ccc(F)cc1 ... 0.74
3. O=C(CCCN1CCC(n2c(O)nc3ccccc32)CC1)c1ccc(F)cc1 ... 0.91
4. O=C(CCCN1CCC(O)(c2ccc(Cl)cc2)CC1)c1ccc(F)cc1 ... 0.87

* * *

target: BuChE (Homo sapiens); experiment: Synergism of antipsychotics with donepezil/rivastigmine (binary mixtures), BuChE; details: donepezil 10 μmol/L + antipsychotic at TPCmax; ComboSyn
recorded metric: CI (combination index), BuChE

1. O=C(CCCN1CCC(O)(c2ccc(Cl)cc2)CC1)c1ccc(F)cc1 [Haloperidol, haloperidol] ... 0.79
2. OC1(c2ccc(Cl)c(C(F)(F)F)c2)CCN(CCCC(c2ccc(F)cc2)c2ccc(F)cc2)CC1 [Penfluridol, penfluridol] ... 1.04
3. OCCOCCN1CCN(C2=Nc3ccccc3Sc3ccccc32)CC1 [Quetiapine, quetiapine] ... 0.71
4. O=c1[nH]c2ccccc2n1C1CCN(CCCC(c2ccc(F)cc2)c2ccc(F)cc2)CC1 [Pimozide, pimozide] ... 0.78
5. O=C(CCCN1CCC(O)(c2ccc(Br)cc2)CC1)c1ccc(F)cc1 [Bromperidol, bromperidol] ... 0.57
6. O=C(CCCN1CCC(n2c(O)nc3ccccc32)CC1)c1ccc(F)cc1 [Benperidol, benperidol] ... 0.57
